- SYSTEM_NAME: 11β-HSD1 (Homo sapiens)
- Sequence (P28845 whole entry): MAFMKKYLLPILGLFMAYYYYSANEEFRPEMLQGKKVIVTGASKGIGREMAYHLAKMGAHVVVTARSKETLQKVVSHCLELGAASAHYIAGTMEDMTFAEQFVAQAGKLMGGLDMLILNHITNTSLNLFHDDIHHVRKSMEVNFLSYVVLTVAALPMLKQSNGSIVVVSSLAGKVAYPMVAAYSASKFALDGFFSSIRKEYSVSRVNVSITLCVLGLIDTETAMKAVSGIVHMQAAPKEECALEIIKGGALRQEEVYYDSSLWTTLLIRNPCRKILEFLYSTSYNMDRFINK
- PROTOCOL: biochemical
- CONDITION: read-out: Average % inhibition at 111.1 nM, Biological Test Example 1; 111.1 nM compound
Catalogue of inhibition at 0.1111 µM values

{"columns": ["COMPOUND", "inhibition at 0.1111 µM (%)"],
 "data": [
  ["CC1(c2ccccc2)CCN(c2cccc(-c3ccncc3)c2)C(=O)O1 (stereo not drawn) [EXAMPLE 33]", 37.1],
  ["O=C(O)CC1(c2ccccc2)CCN(c2cccc(-c3ccc(F)cc3F)c2)C(=O)O1 (stereo not drawn) [EXAMPLE 70]", 9.3],
  ["C=CCC1(c2ccccc2)CCN(c2cccc(Br)c2)C(=O)O1 (stereo not drawn) [EXAMPLE 63]", 59]
]}
